Reported EC50 (nM), cAMP assay values are given for each entry in this list.
target: human glucagon receptor (GCGR), expressed on CHO-K1 cells (human, UniProt P47871 26-477); test: cell-based or functional assay
Sequence (P47871 26-477): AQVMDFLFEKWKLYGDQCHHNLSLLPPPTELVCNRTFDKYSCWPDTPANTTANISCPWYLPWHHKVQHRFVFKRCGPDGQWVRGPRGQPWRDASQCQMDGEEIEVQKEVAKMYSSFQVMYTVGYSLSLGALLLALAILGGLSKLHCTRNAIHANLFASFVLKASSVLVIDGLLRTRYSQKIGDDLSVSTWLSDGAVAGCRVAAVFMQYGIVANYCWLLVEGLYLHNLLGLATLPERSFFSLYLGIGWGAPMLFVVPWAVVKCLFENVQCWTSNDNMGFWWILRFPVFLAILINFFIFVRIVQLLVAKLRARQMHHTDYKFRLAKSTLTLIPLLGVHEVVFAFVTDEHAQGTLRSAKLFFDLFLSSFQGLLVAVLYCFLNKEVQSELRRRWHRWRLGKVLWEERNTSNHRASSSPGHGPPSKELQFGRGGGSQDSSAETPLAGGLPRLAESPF
Numbered stars: 1 amine (or outer) side, 2 acyl side, 3 side chain; on linkers, the order of the positions; unused ones are H or OH. Square brackets hold non-standard residues; d marks the D form. Side chains are listed from the residue outwards. Ends that are not written are not given here. C18 = C18 fatty acid (C16-C22 fatty acids conjugated via γGlu/8-amino-3,6-dioxaoctanoic acid spacers); γGlu = O=C(O)[C@H](CCC(=O)[*:2])N[*:1]; AEEA = NCCOCCOCC(=O)O; Aib = CC(C)(N)C(=O)O; MAL = maleimide
recorded_metric: EC50 (nM), cAMP assay

binder: H[Aib]QGTFTSDYSKLLDYMMQRDFVQWLLEGGPSSGAPPPSC([MAL-AEEA-AEEA-γGlu-C18])-NH2 [Peptide No. 5-5A]
recorded_metric: EC50 (nM), cAMP assay
test_value: 9.43
--
binder: H[Aib]QGTFTSDYSKYLDYMMARDFVQWLIEGGPSSGAPPPSC([MAL-AEEA-AEEA-γGlu-C18])-NH2 [Peptide No. 5A (peptide 5, A type: lipid at Cys40)]
recorded_metric: EC50 (nM), cAMP assay
test_value: 1.71
--
binder: Y[Aib]QGTFTSDYSKYLDYMMQRDFVQWLIEGGPSSGAPPPSC-NH2 (not fully specified (residue 40)) [Peptide No. 5-2A]
recorded_metric: EC50 (nM), cAMP assay
test_value: 23
--
binder: Y[Aib]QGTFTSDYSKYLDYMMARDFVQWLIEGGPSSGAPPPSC-NH2 (not fully specified (residue 40)) [Peptide No. 5-1A]
recorded_metric: EC50 (nM), cAMP assay
test_value: 0.576
